target: c-Src SH2; assay: SH2 binding enrichment of the phosphorylated peptide, bacterial display (enrichment ratio); higher = better substrate or ligand; peptides without Tyr show the background;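 note: peptide library displayed on the E. coli surface as eCPX fusions, selected cells deep-sequenced, score is each peptide's frequency after selection divided by its frequency in the input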
MEASUREMENT NAME: SH2 binding enrichment

| MACROMOLECULE SEQUENCE | TEST TARGET | QUANTITATIVE RESULT |
| --- | --- | --- |
| MKKKIYAMGGG [GAN_Y424] | c-Src SH2 | 0.679 |
| KELANYYKLHH [AK7_Y390] | c-Src SH2 | 0.697 |
| TLGPFYPSRLF [CRYAA_Y18] | c-Src SH2 | 0.717 |
| YSMGCYEFSLG [HMGCL_Y198_I200F] | c-Src SH2 | 0.701 |
